Each entry below lists one item and its recorded normalized growth value.
METHOD_SUMMARY: chemical genetic growth profiling, strain panel (AID 1159580);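 also: tested at 20 µM; growth read once vehicle control cultures reached saturation at 30 °C; 1 = growth at the plate median or of vehicle wells; lower values mean less growth of the strain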
MEASUREMENT_SETUP: S. cerevisiae deletion strains, growth OD, locus YER155C, strain BEM2 (second series), active compounds read low
Hit rate of the full screen: of about 5,500 compounds, about 2,000 (36%) were called active. Inconclusive results (about 18%) are left out. The list shows a part of the results.
EXPERIMENTAL_READOUT: normalized growth

molecule=CO/N=C(\C(=O)N[C@@H]1C(=O)N2C(C(=O)O)=C(CSc3nc(=O)c(O)nn3C)CS[C@H]12)c1csc(N)n1 experimental_readout="normalized growth" experimental_result=0.959
molecule=CO/N=C(\C(=O)N[C@@H]1C(=O)N2C(C(=O)O)=C(COC(C)=O)CS[C@H]12)c1csc(N)n1 experimental_readout="normalized growth" experimental_result=0.965
molecule=Cc1c(Cl)cccc1Nc1ccccc1C(=O)O experimental_readout="normalized growth" experimental_result=0.595
molecule=CCNC(=O)CC[C@H](N)C(=O)O experimental_readout="normalized growth" experimental_result=0.99
molecule=O=C1OC2(c3ccc(O)cc3Oc3cc(O)ccc32)c2ccccc21 experimental_readout="normalized growth" experimental_result=1.02
molecule=CCCCCCOc1ccccc1C(N)=O experimental_readout="normalized growth" experimental_result=0.249
molecule="COc1cc2c(cc1OC)C1Cc3ccc(OC)c(OC)c3CN1CC2 (centres undefined)" experimental_readout="normalized growth" experimental_result=0.972
molecule=O=C1C=C2C=C[C@@H]3C[C@@]2(O1)[C@H]1CCCCN31 experimental_readout="normalized growth" experimental_result=0.986
molecule="CO/N=C(\\C(=O)NC1C(=O)N2C(C(=O)O)=C(COC(N)=O)CSC12)c1ccco1 (centres undefined)" experimental_readout="normalized growth" experimental_result=0.969
molecule=CCCOc1ccc(C(=O)OCCN(CC)CC)cc1N experimental_readout="normalized growth" experimental_result=1
molecule="CCCCN1CCCCC1C(=O)Nc1c(C)cccc1C (centres undefined)" experimental_readout="normalized growth" experimental_result=0.997
molecule=CCOC(=O)Nc1nc2ccccc2[nH]1 experimental_readout="normalized growth" experimental_result=0.977
molecule=O=C(Cn1ccnc1[N+](=O)[O-])NCCO experimental_readout="normalized growth" experimental_result=1.01
molecule=Cc1ccc(Cl)c(Nc2ccccc2C(=O)O)c1Cl experimental_readout="normalized growth" experimental_result=0.644

* * *

METHOD_SUMMARY: chemical genetic growth profiling, strain panel (AID 1159580);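 also: tested at 20 µM; growth read once vehicle control cultures reached saturation at 30 °C; 1 = growth at the plate median or of vehicle wells; lower values mean less growth of the strain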
MEASUREMENT_SETUP: S. cerevisiae deletion strains, growth OD, locus YLR085C, strain ARP6, active compounds read low
The whole screen tested about 5,500 compounds, of which about 2,000 (36%) were called active. About 18% were inconclusive and are not listed. The list shows a part of the results.
EXPERIMENTAL_READOUT: normalized growth

compound=Cc1ccc(CC(=O)O)cc1 experimental_result="1.08 (inactive)"
compound=c1ccc(-c2cc3c(nn2)CCc2nonc2-3)cc1 experimental_result="0.886 (inactive)"
compound=CC(/C=N\O)=N/Nc1ccccc1 experimental_result="0.793 (inactive)"
compound=CC(=O)c1ccc(-c2cccs2)s1 experimental_result="0.606 (active)"
compound=Cc1cccc2c1N(C(=S)Nc1ccccc1Cl)CCC2 experimental_result="0.602 (active)"
compound="CC12NC(=O)NC1(C)NC(=O)N2 (stereo not drawn)" experimental_result="1.05 (inactive)"
compound=Cc1onc(-c2c(Cl)cccc2Cl)c1C(=O)OCC(F)(F)F experimental_result="0.971 (inactive)"
compound=Cc1onc(-c2c(F)cccc2Cl)c1C(=O)Oc1ccccc1 experimental_result="0.838 (inactive)"
